Tested on: SF-268 CNS
assay name: NCI tumour cell line growth inhibition, 48 h
quantity kind: TGI

Report TGI for COc1ccc(Nc2nc3cc(N)cc(N)c3nc2-c2ccccc2)cc1OC tested on SF-268 CNS. 47.1 µM

Report TGI for O=S(=O)(O)Oc1cc2c(c(OS(=O)(=O)O)c1)C[C@H](OS(=O)(=O)O)[C@@H](c1ccc(OS(=O)(=O)O)c(OS(=O)(=O)O)c1)O2 tested on SF-268 CNS. > 100 µM

Report TGI for COc1cc(NCCN=C(N)NC(N)=NC(C)C)c2ncccc2c1 tested on SF-268 CNS. > 100 µM

Report TGI for CC1(C)CC(=O)c2c(nc3c(ccc4ccccc43)c2-c2ccc(NC(=O)CCCCC(=O)Nc3ccc(-c4c5c(nc6c4ccc4ccccc46)CC(C)(C)CC5=O)cc3)cc2)C1 tested on SF-268 CNS. > 100 µM

Report TGI for N#CCN(CC#N)C1CC=CCC1N(CC#N)CC#N (centres undefined) tested on SF-268 CNS. > 100 µM
